Biological target: Regulator of G-protein signaling 19 (Homo sapiens, UniProt P49795)
Sequence (P49795 whole entry): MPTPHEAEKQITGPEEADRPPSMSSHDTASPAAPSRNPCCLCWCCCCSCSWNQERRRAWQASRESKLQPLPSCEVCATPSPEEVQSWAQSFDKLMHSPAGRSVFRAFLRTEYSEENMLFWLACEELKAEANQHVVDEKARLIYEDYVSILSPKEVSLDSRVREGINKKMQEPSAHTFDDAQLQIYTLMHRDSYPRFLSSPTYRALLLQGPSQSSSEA
Assay: analogs regulating RGS19 interaction with Gαo – biochemical, SAR compounds, multiplexed bead flow cytometry, SAR follow-up (AID 2311)
Settings: inactive by the depositor's call
endpoint: pEC50
Remember the convention: pEC50 equals -log10 of concentration in molar.

Incoming: Recorded pEC50 of CCOc1ccccc1-c1c2cc(O)c(=O)cc-2oc2cc(O)c(O)cc12 , please.
Outgoing: 5.33
